Emax values for the molecules below.
- measured_target: human sphingosine-1-phosphate receptor 1 (S1P1) (Homo sapiens, UniProt P21453)
- Sequence (P21453 whole entry): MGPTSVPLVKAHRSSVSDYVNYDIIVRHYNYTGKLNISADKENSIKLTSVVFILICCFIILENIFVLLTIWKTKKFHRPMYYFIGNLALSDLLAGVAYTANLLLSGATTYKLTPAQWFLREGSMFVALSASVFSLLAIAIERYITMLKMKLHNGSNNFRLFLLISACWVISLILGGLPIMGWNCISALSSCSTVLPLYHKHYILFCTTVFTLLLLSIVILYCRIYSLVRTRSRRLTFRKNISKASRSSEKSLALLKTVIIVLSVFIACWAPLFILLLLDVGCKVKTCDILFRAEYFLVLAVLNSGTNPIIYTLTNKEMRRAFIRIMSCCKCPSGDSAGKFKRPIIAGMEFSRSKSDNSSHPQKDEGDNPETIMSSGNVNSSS
- assay: Inhibition of cAMP production (HTRF cAMP HiRange), S1P1 CHO-K1 cells
- Assay type: cell-based
- study_conditions: CHO-K1; efficacy normalized to maximum efficacy of fingolimod; read-out: hS1P1 CAMP SPAN

N#Cc1cc(-c2nc(-c3ccc4oc(=O)[nH]c4c3)no2)ccc1NCC1CC1 [Compound 423]	> 75%
CC(C)n1nnc2cc(-c3noc(-c4cccc5c4CCC5=O)n3)ccc21 [Compound 608]	> 75%
CC(C)n1nnc2cc(-c3cc(-c4ccccc4F)c[nH]3)ccc21 [Compound 542]	< 75%
COc1ccccc1-c1csc(-c2ccc3c(ccn3C(C)C)n2)n1 [Compound 411]	< 75%
CC(C)n1ccc2cc(-c3nc(-c4ccccc4C(F)(F)F)cs3)cnc21 [Compound 408]	> 75%

Name the recorded Emax of the molecule listed here: CCC1(CC)CC(=O)c2cc(-c3nc(-c4ccc5c(c4)CCC(=O)N5)no3)ccc2O1 [Compound 415]
< 75%

Query Emax for O=C1c2cc(-c3nc(-c4cccnc4)no3)ccc2OC(CO)(CO)C1Br (centres unmarked) [Compound 479]
< 75%

Item O=C1CNc2ccc(-c3nc(-c4cn[nH]c4)no3)cc2N1 [Compound 645] : provide Emax
> 75%
